Below, each entry is listed with its recorded inhibition.
assayed target: Hepatocyte growth factor receptor (Homo sapiens);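 also: reported values are means of MET inhibition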
measurement setup: at 0.1 µM
State just the number; it will be interpreted in %.

Example cases with answers are listed next.
OCc1ccc(-c2nc(-c3ccccn3)c(-c3ccc4c(c3)OCO4)[nH]2)cc1	11.7
C[C@@H](Oc1cc(-n2cnc3ccc(OCC4CCN(C)CC4)cc32)sc1C(N)=O)c1ccccc1C(F)(F)F	2.85
Cc1cc(Cl)cc2c1NC(=O)C2=NNc1ccc(S(N)(=O)=O)cc1	-0.26

Item Cc1nc(-c2ccccc2)n2nc(NCCCN3CCOCC3)ncc12 has what recorded inhibition?
2.77

---

assayed target: Tyrosine-protein kinase BTK (Homo sapiens);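 also: values are averaged percent inhibition of BTK enzyme activity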
measurement setup: at 0.1 µM
endpoint label: inhibition (%)
State just the number; it will be interpreted in %.

Example cases with answers are listed next.
CN1CCN(C(=O)c2ccc(NC(=O)Nc3ccc(N(C)c4ccnc(Nc5ccc(CS(C)(=O)=O)cc5)n4)cc3)cc2)CC1	1.59
Nc1nccc(C#Cc2cncnc2Nc2ccc(OCc3cccc(F)c3)c(Cl)c2)n1	0.96
COc1cc(Nc2nccc(-c3cnn4ncccc34)n2)cc(OC)c1	1.94

Then this compound:
Item CCS(=O)(=O)c1ccc(OC)c(Nc2nccc(N(C)c3ccc4c(C)n[nH]c4c3)n2)c1 has what recorded inhibition?
2.21
